molecular target: AgFus1; experiment: SPOT peptide array binding signal intensity (averaged, normalized) (arbitrary units (background-subtracted, floor 0; scale differs between SH3 domains)); higher = stronger binding of the SH3 domain to the peptide
Category scheme (SPOT peptide array binding signal intensity): Low: < 30; Mid: ≥ 30 and < 500; High: ≥ 500

{"binder": "DKSRPPRPPPKPLHL", "groupLabel": "Low"}

For this binder, which bin applies? NHSRSLFSLPGNQQS
High

Dear colleague, I would appreciate it if you could identify the bin for NGRRRPKFRVQLSGN and reply at your convenience.
High

// return the class label for DGNEEKPLLPTRPNK
Low

Please indicate the class for NQARKPFLLPATELS based on its SPOT peptide array binding signal intensity.
Low

// return the class label for STPQTMRQAPKRPDA
Mid

# bin lookup: classify RTIRKLPLMSLSEYF by its SPOT peptide array binding signal intensity
Mid

Form field 'band' for KRKRRLPVSEDTNTK
High

For this binder, which bin applies? SRSKPLPLTPNSKYN
Low

Which SPOT peptide array binding signal intensity category applies to QHQQRQPKRPKRYSL here?
Mid

Lab log: KMSRSPPRPPSLKII — assign SPOT peptide array binding signal intensity category
Mid

Entry KRNRLKILLPFLEQS belongs to which category?
High

Which class does SHRLWLYAAPKRPKT fall in?
Mid

# classify by SPOT peptide array binding signal intensity band: QQNRPLPQLPNRNNR
Low

Exercise: read the entry YLTRPLPSTPNEDSR and state which class it falls under.
Low
